Data origin, for the record: paper PMC2845643

measured.target: cardiac troponin C (M45Q TnC IAANS T53C) (Homo sapiens, UniProt P63316)
measurement.notes: IAANS fluorescence titration
readout: pKd
Answers are plain numbers, as −log10 of the molar value.

Return the recorded pKd value; entry: cardiac troponin I peptide TnI128-180 128-180 (protein) LTQKIFDLRGKFKRPTLRRVRISADAMMQALLGARAKESLDLRAHLKQVKKED
6.54
